Biological target: CD73 on U138 neuroglioma cells (Homo sapiens)
Construct: U138 neuroglioma cells, which express CD73 on their surface; endogenous in cells; host or cells: U138 neuroglioma cells (ATCC)
Experiment: Inhibition of Ecto-5′-Nucleotidase Activity in U138 Neuroglioma Cells (Assay 2)
Format: cell-based
Conditions: 50 μM CMP, 2 hr at 37° C., malachite green readout, read-out: Assay 2: IC50, inhibition of ecto-5′-nucleotidase activity in U138 neuroglioma cells

# compound, IC50
records = [
    ("Nc1nc(Cl)nc2c1ncn2[C@@H]1O[C@H](COC(Cc2nccs2)(C(=O)O)C(=O)O)[C@@H](O)[C@H]1O", "< 100 nM"),
    ("CCNC(=O)[C@@H](OC[C@H]1O[C@@H](n2cnc3c(N)nc(Cl)nc32)[C@H](O)[C@@H]1O)P(=O)(O)O (single isomer, unassigned) [Example 18a]", "< 100 nM"),
    ("CC(C)(C)OC(=O)[C@@H](OC[C@H]1O[C@@H](n2cnc3c(N)nc(C#N)nc32)[C@H](O)[C@@H]1O)P(=O)(O)O (single isomer, unassigned) [Example 54b]", "100 to 1000 nM"),
    ("CCOC(=O)[C@H](OC[C@H]1O[C@@H](n2cnc3c(NC(=O)c4ccccc4)nc(Cl)nc32)[C@H](O)[C@@H]1O)P(=O)(O)O (single isomer, unassigned)", "100 to 1000 nM"),
    ("CCOC(=O)[C@H](OC[C@H]1O[C@@H](n2cnc3c(NCc4ccccc4)nc(Cl)nc32)[C@H](O)[C@@H]1O)P(=O)(O)O (single isomer, unassigned)", "< 100 nM"),
    ("Nc1nc(Cl)nc2c1ncn2[C@@H]1O[C@H](CO[C@H](C(=O)OCc2ccccc2)P(=O)(O)O)[C@@H](O)[C@H]1O [Example 16a]", "> 1000 nM"),
]

* * *

# maps each entry to its IC50
Target: human CD73 (Homo sapiens, UniProt P21589)
Construct: purchased R&D Systems 5795-EN-010
Sequence (P21589 27-549): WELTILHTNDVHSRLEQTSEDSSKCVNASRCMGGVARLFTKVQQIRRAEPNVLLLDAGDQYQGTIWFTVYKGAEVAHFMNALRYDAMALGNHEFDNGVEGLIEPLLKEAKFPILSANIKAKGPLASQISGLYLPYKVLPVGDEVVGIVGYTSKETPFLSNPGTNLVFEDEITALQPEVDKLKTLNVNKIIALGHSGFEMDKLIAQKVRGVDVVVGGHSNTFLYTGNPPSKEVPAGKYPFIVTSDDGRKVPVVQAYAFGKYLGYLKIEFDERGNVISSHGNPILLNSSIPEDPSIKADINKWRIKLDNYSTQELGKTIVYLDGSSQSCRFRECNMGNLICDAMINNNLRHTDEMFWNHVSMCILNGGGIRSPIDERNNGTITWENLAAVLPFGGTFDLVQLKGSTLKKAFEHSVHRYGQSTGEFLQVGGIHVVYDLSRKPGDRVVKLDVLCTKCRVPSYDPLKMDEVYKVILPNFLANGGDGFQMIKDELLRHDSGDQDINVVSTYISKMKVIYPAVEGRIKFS
Assay: Inhibition of 5′-Nucleotidase Activity of CD73 (Assay 1)
Format: biochemical
Conditions: human CD73 4 ng/ml, 50 μM CMP, 20 min at RT, malachite green readout; read-out: Assay 1: IC50, inhibition of 5′-nucleotidase activity of CD73
Description: Inhibition of 5′-Nucleotidase Activity of CD73 (Assay 1) Compounds of the present invention were tested for the ability to inhibit CD73 enzyme activity. Tested compounds were dissolved in DMSO (50× final concentration), and 3.2 μL of the solutions added to 96-well polystyrene plates. […] The mixture was agitated vigorously for 10 min at RT, and absorbance at 620 nm was determined on a microplate spectrophotometer. […]

# compound, IC50
data = [
    ("CCCS(=O)(=O)[C@@H](OC[C@H]1O[C@@H](n2cnc3c(N)nc(Cl)nc32)[C@H](O)[C@@H]1O)P(=O)(O)O (single isomer, unassigned) [Example 12a]", "> 1000 nM"),
    ("CCOC(=O)[C@H](OC[C@H]1O[C@@H](n2cnc3c(N)nc(F)nc32)[C@H](O)[C@@H]1O)P(=O)(O)O (single isomer, unassigned) [Example 52a]", "100 to 1000 nM"),
    ("Nc1nc(Cl)nc2c1ncn2[C@@H]1O[C@H](COC(C(=O)O)P(=O)(O)O)[C@@H](O)[C@H]1O (single isomer, unassigned) [Example 61]", "< 100 nM"),
    ("CCOC(=O)[C@@](C)(OC[C@H]1O[C@@H](n2cnc3c(N)nc(Cl)nc32)[C@H](O)[C@@H]1O)P(=O)(O)O (single isomer, unassigned)", "100 to 1000 nM"),
    ("O=C(O)C(OC[C@H]1C[C@@H](n2cnc3cccc(Cl)c3c2=O)[C@H](O)[C@@H]1O)P(=O)(O)O (some centres unmarked)", "> 1000 nM"),
    ("CCOC(=O)[C@@H](OC[C@H]1O[C@@H](n2cnc3c(N)nc(CC(C)C)nc32)[C@H](O)[C@@H]1O)P(=O)(O)O (single isomer, unassigned) [Example 46a]", "> 1000 nM"),
    ("CCOC(=O)[C@H](OC[C@H]1O[C@@H](n2cnc3c(NCc4ccccc4)nc(Cl)nc32)[C@H](O)[C@@H]1O)P(=O)(O)O (single isomer, unassigned)", "< 100 nM"),
    ("CCOC(=O)C(OC[C@H]1O[C@@H](n2cnc3ccc(Cl)nc32)[C@H](O)[C@@H]1O)P(=O)(O)O (single isomer, unassigned) [Example 87]", "< 100 nM"),
    ("CCOC(=O)C(OC[C@H]1C[C@@H](n2nnc3c(NC[C@@H]4CCOC4)nc(Cl)nc32)[C@H](O)[C@@H]1O)P(=O)(O)O (some centres unmarked)", "< 100 nM"),
    ("CCOC(=O)C(SC[C@H]1O[C@@H](n2cnc3c(N)nc(Cl)nc32)[C@H](O)[C@@H]1O)P(=O)(O)O (some centres unmarked)", "100 to 1000 nM"),
    ("CC(C)(C)OC(=O)[C@H](OC[C@H]1O[C@@H](n2cnc3c(N)nc(Cl)nc32)[C@H](O)[C@@H]1O)P(=O)(O)O (single isomer, unassigned)", "< 100 nM"),
]

* * *

Target: human CD73 (Homo sapiens)
Construct: purchased R&D Systems 5795-EN-010
Assay: Inhibition of 5′-Nucleotidase Activity of CD73 (Assay 1)
Format: biochemical
Settings: human CD73 4 ng/ml, 50 μM CMP, 20 min at RT, malachite green readout; read-out: Assay 1: IC50, inhibition of 5′-nucleotidase activity of CD73
pIC50: −log10 of the molar value.
# maps each entry to its pIC50
recorded_metric: pIC50

# compound, recorded_metric, result
measured = [
    ("CS(=O)(=O)C(OC[C@H]1O[C@@H](n2cnc3c(N)nc(Cl)nc32)[C@H](O)[C@@H]1O)P(=O)(O)O (single isomer, unassigned) [Example 10a]", "pIC50", "< 6.00"),
    ("CNc1ncnc2c1ncn2[C@@H]1O[C@H](COC(C(=O)O)P(=O)(O)O)[C@@H](O)[C@H]1O (some centres unmarked) [Example 67]", "pIC50", "6.00 to 7.00"),
    ("CCOC(=O)[C@@H](OC[C@H]1O[C@@H](n2cnc3c(N)nc(C4NCCO4)nc32)[C@H](O)[C@@H]1O)P(=O)(O)O (single isomer, unassigned) [Example 51b]", "pIC50", "< 6.00"),
    ("CCOC(=O)[C@@H](OC[C@H]1O[C@@H](n2cnc3c(NC(=O)c4ccccc4)nc(Cl)nc32)[C@H](O)[C@@H]1O)P(=O)(O)O (single isomer, unassigned) [Example 36a]", "pIC50", "6.00 to 7.00"),
    ("CC(C)COC(=O)[C@@H](OC[C@H]1O[C@@H](n2cnc3c(N)nc(Cl)nc32)[C@H](O)[C@@H]1O)P(=O)(O)O (single isomer, unassigned) [Example 14a]", "pIC50", "6.00 to 7.00"),
    ("CCOC(=O)[C@H](OC[C@H]1C[C@@H](n2cnc3cccc(Br)c3c2=O)[C@H](O)[C@@H]1O)P(=O)(O)O (single isomer, unassigned) [Example 72]", "pIC50", "6.00 to 7.00"),
    ("CC(C)CS(=O)(=O)[C@@H](OC[C@H]1O[C@@H](n2cnc3c(N)nc(Cl)nc32)[C@H](O)[C@@H]1O)P(=O)(O)O (single isomer, unassigned) [Example 13a]", "pIC50", "< 6.00"),
    ("CCOC(=O)C(OC[C@H]1O[C@@H](n2cnc3cc(Cl)c(Cl)cc32)[C@H](O)[C@@H]1O)P(=O)(O)O (single isomer, unassigned) [Example 81]", "pIC50", "< 6.00"),
]
